Recorded values, source ChEMBL document CHEMBL1138767.

biological target: Interstitial collagenase (Homo sapiens); assay: Inhibition of MMP-1 (matrix metalloprotease) at 10 uM
I'd be grateful if you could share measured inhibition for these entries.
Use % as the unit, but write only the number.

Return inhibition for the following molecule: CC(C)(C)[C@@H]1NC(=O)[C@@H](CN(O)C=O)CCCCCCCCNC1=O
1

Return inhibition for the following molecule: CC(=O)NCCCC[C@@H]1NC(=O)[C@@H](CN(O)C=O)CCCCCCCCCNC1=O
13

Return inhibition for the following molecule: CC(C)(C)[C@@H]1NC(=O)[C@@H](CN(O)C=O)CCCCCCCCCNC1=O
14

Return inhibition for the following molecule: CCCC[C@H](CN(O)C=O)C(=O)N[C@@H](CCCCN)C(=O)Nc1ccccc1
97

Return inhibition for the following molecule: CC(C)(C)[C@@H]1NC(=O)[C@@H](CN(O)C=O)CCCCCCCCCCCCCCNC1=O
8

Return inhibition for the following molecule: NCCCC[C@@H]1NC(=O)[C@@H](CN(O)C=O)CCCCCCCCCCCCCCNC1=O
7

Return inhibition for the following molecule: CCCCCCNC(=O)[C@H](CCCCN)NC(=O)[C@H](CCCCC)CN(O)C=O
100
